Task for the reader: assign each of the following sequences its reported shrunken log2 fold change.
system: Escherichia coli TOP10; assay: shrunken log2 fold change of peptide-encoding DNA abundance (4.5 h post-induction vs induction); higher = less antimicrobial activity (less host growth inhibition); conditions: time post-induction: 4.5 h; library: site-saturation at positions 5, 18, 19, 20;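 also: peptides expressed intracellularly from a pBAD plasmid library in pooled LB shake-flask culture, induced with 0.3% L-arabinose, DNA abundance read by NGS, three biological replicates, DESeq2 with apeglm shrinkage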
Write no unit; give the number alone.

Sample RRIRDRPPRLPRPRPRPMCFPRP ; shrunken log2 fold change observed: 0.0878

Sample RRIRPRPPRLPRPRPRPFYGPRP ; shrunken log2 fold change observed: -0.142

Sample RRIRYRPPRLPRPRPRPFPMPRP ; shrunken log2 fold change observed: -0.834

Sample RRIRDRPPRLPRPRPRPWSCPRP ; shrunken log2 fold change observed: -0.188

Sample RRIRHRPPRLPRPRPRPSMCPRP ; shrunken log2 fold change observed: -0.448

Sample RRIRNRPPRLPRPRPRPGSYPRP ; shrunken log2 fold change observed: -0.442

Sample RRIRFRPPRLPRPRPRPDTTPRP ; shrunken log2 fold change observed: 0.00968

Sample RRIRERPPRLPRPRPRPGDTPRP ; shrunken log2 fold change observed: -0.943

Sample RRIRMRPPRLPRPRPRPYTHPRP ; shrunken log2 fold change observed: -0.174

Sample RRIRWRPPRLPRPRPRPFILPRP ; shrunken log2 fold change observed: -0.476

Sample RRIRLRPPRLPRPRPRPCDKPRP ; shrunken log2 fold change observed: -0.304

Sample RRIRNRPPRLPRPRPRPSHIPRP ; shrunken log2 fold change observed: -0.69

Sample RRIRERPPRLPRPRPRPDMNPRP ; shrunken log2 fold change observed: -0.00248

Sample RRIRTRPPRLPRPRPRPWWPPRP ; shrunken log2 fold change observed: -0.0247

Sample RRIRPRPPRLPRPRPRPVMLPRP ; shrunken log2 fold change observed: -0.0771

Sample RRIRARPPRLPRPRPRPENMPRP ; shrunken log2 fold change observed: 0.242

Sample RRIRSRPPRLPRPRPRPDVPPRP ; shrunken log2 fold change observed: -0.0936

Sample RRIRHRPPRLPRPRPRPTQKPRP ; shrunken log2 fold change observed: -0.00748

Sample RRIRIRPPRLPRPRPRPTFKPRP ; shrunken log2 fold change observed: -0.102

Sample RRIRHRPPRLPRPRPRPKYMPRP ; shrunken log2 fold change observed: -0.746

Sample RRIRKRPPRLPRPRPRPRRAPRP ; shrunken log2 fold change observed: 0.9

Sample RRIRNRPPRLPRPRPRPKGPPRP ; shrunken log2 fold change observed: 0.0947

Sample RRIRRRPPRLPRPRPRPFIYPRP ; shrunken log2 fold change observed: -0.194

Sample RRIRLRPPRLPRPRPRPRDQPRP ; shrunken log2 fold change observed: 0.0949

Sample RRIRYRPPRLPRPRPRPMQAPRP ; shrunken log2 fold change observed: -0.0122

Sample RRIRKRPPRLPRPRPRPQEFPRP ; shrunken log2 fold change observed: -0.0241

Sample RRIRWRPPRLPRPRPRPCDAPRP ; shrunken log2 fold change observed: 0.138

Sample RRIRVRPPRLPRPRPRPDHAPRP ; shrunken log2 fold change observed: 0.27

Sample RRIRIRPPRLPRPRPRPCWMPRP ; shrunken log2 fold change observed: -0.222

Sample RRIRDRPPRLPRPRPRPKGHPRP ; shrunken log2 fold change observed: 0.0517

Sample RRIRDRPPRLPRPRPRPFELPRP ; shrunken log2 fold change observed: -0.0281

Sample RRIRYRPPRLPRPRPRPMAHPRP ; shrunken log2 fold change observed: -0.0234
